Experiment: Solid-liquid equilibrium temperature
Conditions: 300000 kPa; Crystal
value_type: Solid-liquid equilibrium temperature (K)
Respond numerically; units are K and should not be typed.

Form: compound = `Clc1ccccc1` ; Solid-liquid equilibrium temperature = 273.46

Solid-liquid equilibrium temperature in this record for `c1ccccc1` : 351.25

Entry under test: `Brc1ccccc1` . Its Solid-liquid equilibrium temperature was 292.45

Input `O=[N+]([O-])c1ccccc1` . Output Solid-liquid equilibrium temperature: 340.02

----------
Test: Solid-liquid equilibrium temperature
Settings: 2000000 kPa; Crystal
value_type: Solid-liquid equilibrium temperature (K)
A number alone suffices; assume K.

Solid-liquid equilibrium temperature reading for `c1ccccc1` : 584.85

`Brc1ccccc1` yielded Solid-liquid equilibrium temperature of 473.67

# Solid-liquid equilibrium temperature of `Clc1ccccc1` = 440.81

Entry `O=[N+]([O-])c1ccccc1` — recorded Solid-liquid equilibrium temperature = 565.62

----------
Please go through the items and note down their Solid-liquid equilibrium temperature.
Test: Solid-liquid equilibrium temperature
Settings: 3000000 kPa; Crystal
Report only the number, with the unit K understood.

Reported Solid-liquid equilibrium temperature of `O=[N+]([O-])c1ccccc1` : 614.38

compound `Brc1ccccc1` , Solid-liquid equilibrium temperature observed: 553.94

Item: `Clc1ccccc1` | Solid-liquid equilibrium temperature: 503.63

Solid-liquid equilibrium temperature recorded for this compound, `c1ccccc1` , is 663.67

----------
Give Solid-liquid equilibrium temperature for every item shown.
Assay: Solid-liquid equilibrium temperature
Conditions: 1000000 kPa; Crystal
Give the value in K but do not write K after it.

Per the record, c1ccccc1 [benzene] has Solid-liquid equilibrium temperature of 465.96

Reported Solid-liquid equilibrium temperature ( O=[N+]([O-])c1ccccc1 [nitrobenzene] ) = 462.61

In plain terms, Clc1ccccc1 [chlorobenzene] has a documented Solid-liquid equilibrium temperature of 354.76

# Solid-liquid equilibrium temperature (compound: Brc1ccccc1 [bromobenzene] ) is 382.85

----------
Experiment: Solid-liquid equilibrium temperature
Conditions: 100000 kPa; Crystal
Provide the reported Solid-liquid equilibrium temperature of each item.
State the answer as a number, implicitly in K.

Kindly note the recorded Solid-liquid equilibrium temperature for `Brc1ccccc1` , which is 259.05

The measured Solid-liquid equilibrium temperature associated with `O=[N+]([O-])c1ccccc1` reads 299.74

Consider `Clc1ccccc1` . Its measured Solid-liquid equilibrium temperature is 246.4

Value of measured Solid-liquid equilibrium temperature for the entry `c1ccccc1` : 306.44

----------
Assay: Solid-liquid equilibrium temperature
Conditions: 800000 kPa; Crystal
value_type: Solid-liquid equilibrium temperature (K)
Express it in K; write the number only.

Entry Clc1ccccc1 [chlorobenzene] , Solid-liquid equilibrium temperature reported as 336.87

response.value for Brc1ccccc1 [bromobenzene] (field: Solid-liquid equilibrium temperature) = 361.85

Measured Solid-liquid equilibrium temperature, O=[N+]([O-])c1ccccc1 [nitrobenzene] : 427.24

The compound identified as c1ccccc1 [benzene] registered its Solid-liquid equilibrium temperature at 437.52

----------
Experiment: Solid-liquid equilibrium temperature
Settings: 900000 kPa; Crystal
Kindly supply the reported Solid-liquid equilibrium temperature values for the records listed here.
Numbers only here, please. The scale is K.

What the record says about `c1ccccc1` : Solid-liquid equilibrium temperature is 452.06

Lab book: Solid-liquid equilibrium temperature of `Clc1ccccc1` noted as 348.81

Measured Solid-liquid equilibrium temperature, `O=[N+]([O-])c1ccccc1` : 442.98

Lab note: `Brc1ccccc1` gave Solid-liquid equilibrium temperature of 374.75

----------
Assay: Solid-liquid equilibrium temperature
Details: 2500000 kPa; Crystal
value_type: Solid-liquid equilibrium temperature (K)
// return numeric value only (unit: K, not printed)

The value of Solid-liquid equilibrium temperature measured for the molecule `Brc1ccccc1` turned out to be 514.22

Memo: `c1ccccc1` , reported Solid-liquid equilibrium temperature: 625.73

The molecule `O=[N+]([O-])c1ccccc1` showed Solid-liquid equilibrium temperature equal to 595.88

Please fill in: Solid-liquid equilibrium temperature reported for `Clc1ccccc1` = 473.28

----------
So I've got a bunch of compounds here, and I need their Solid-liquid equilibrium temperature values.
Experiment: Solid-liquid equilibrium temperature
Settings: 200000 kPa; Crystal
Answer in K, number only, no unit symbol.

Reported Solid-liquid equilibrium temperature ( `c1ccccc1` ) = 329.93

GET /value?item= `Brc1ccccc1` &field=Solid-liquid equilibrium temperature returns 276.45

Noted for `Clc1ccccc1` : its Solid-liquid equilibrium temperature reads 263.03

Query `O=[N+]([O-])c1ccccc1` yields Solid-liquid equilibrium temperature of 320.77

----------
Test: Solid-liquid equilibrium temperature
Conditions: 600000 kPa; Crystal
± gives the expanded uncertainty stated by the source.
value_type: Solid-liquid equilibrium temperature
Please don't drop the unit; write it after the number.

Measured Solid-liquid equilibrium temperature of Brc1ccccc1 [bromobenzene] : 336.15 ± 2 K

Form: compound = Clc1ccccc1 [chlorobenzene] ; Solid-liquid equilibrium temperature = 315.62 ± 1.9 K

Sure, the documented Solid-liquid equilibrium temperature for c1ccccc1 [benzene] is 406.15 ± 2.5 K

The reported value for O=[N+]([O-])c1ccccc1 [nitrobenzene] in terms of Solid-liquid equilibrium temperature is 395.9 ± 2.4 K

----------
Assay: Solid-liquid equilibrium temperature
Details: 1500000 kPa; Crystal
Please provide measured Solid-liquid equilibrium temperature for the entries that follow.
Just the number in K, nothing appended.

Entry `c1ccccc1` , Solid-liquid equilibrium temperature reported as 538.73

Kindly note the recorded Solid-liquid equilibrium temperature for `Clc1ccccc1` , which is 403.44

The compound listed as `O=[N+]([O-])c1ccccc1` shows Solid-liquid equilibrium temperature equal to 516.38

The compound `Brc1ccccc1` showed Solid-liquid equilibrium temperature equal to 430.05

----------
Assay: Solid-liquid equilibrium temperature
Details: 700000 kPa; Crystal
value_type: Solid-liquid equilibrium temperature (K)
Quick reminder: number only, in K, skip the unit.

Value of measured Solid-liquid equilibrium temperature for the entry `c1ccccc1` : 422.25

Value of measured Solid-liquid equilibrium temperature for the entry `Clc1ccccc1` : 325.56

Entry under test: `O=[N+]([O-])c1ccccc1` . Its Solid-liquid equilibrium temperature was 412.3

Reported Solid-liquid equilibrium temperature for `Brc1ccccc1` was 349.25

----------
Assay: Solid-liquid equilibrium temperature
Settings: 400000 kPa; Crystal
value_type: Solid-liquid equilibrium temperature (K)
Please reply with the bare figure in K and do not write the unit itself.

Query Clc1ccccc1 [chlorobenzene] yields Solid-liquid equilibrium temperature of 288.44

Reported Solid-liquid equilibrium temperature for Brc1ccccc1 [bromobenzene] was 310.05

Measured Solid-liquid equilibrium temperature of c1ccccc1 [benzene] : 370.85

The recorded Solid-liquid equilibrium temperature for entry O=[N+]([O-])c1ccccc1 [nitrobenzene] equals 360.41

----------
Experiment: Solid-liquid equilibrium temperature
Settings: 500000 kPa; Crystal
Numbers after ± are expanded uncertainties.
value_type: Solid-liquid equilibrium temperature
Reply with a number, then the unit it belongs to.

Measured Solid-liquid equilibrium temperature of `c1ccccc1` : 389.07 ± 2.3 K

The reported value for `Brc1ccccc1` in terms of Solid-liquid equilibrium temperature is 322.55 ± 1.9 K

Value of Solid-liquid equilibrium temperature reported for the compound `Clc1ccccc1` is 301.03 ± 1.8 K

Looking up `O=[N+]([O-])c1ccccc1` , I see its Solid-liquid equilibrium temperature listed as 378.61 ± 2.3 K
